experiment: Human HepG2 cell viability assay in 384 well format
Type: toxicity, cell-based
Set-up: dose 125 nL, time 70.5 hour; concentration not given beside the values
run-conditions: HepG2 cells, read-out: Inhibition
recorded-metric: cytotoxicity at 70.5 h (%)

compound=O=C(NCCNc1ncccn1)NCCc1c(F)cccc1F reported_result=-13.1
compound=Cc1cc(C)c(CNC(=O)NC2CCOCC2)c(=O)[nH]1 reported_result=-12.6
compound="O=C(NCc1ccc2c(c1)CCCO2)c1ccc(C2CCNC2)cc1 (stereo unspecified)" reported_result=-18
compound="CCCn1cc(C(=O)NC(C)c2c(C)nn(CC)c2C)c(C)n1 (stereo unspecified)" reported_result=-8.59
compound=Cc1ccc(NC2CCN(C(=O)Cc3cccc(F)c3)CC2)nn1 reported_result=-4.83
compound=CC(C)[C@H]1CN(S(C)(=O)=O)C[C@@H]1NC(=O)c1ccnc(N)c1 reported_result=-1.08
compound="CCc1cnc(COc2ccc(OC3CCCCNC3=O)cc2)o1 (stereo unspecified)" reported_result=-4.27
compound=N#Cc1ccc(Oc2cc(F)c(CN3CCCC3)c(F)c2)nc1 reported_result=-2.2
compound=Cc1ccc(C(=O)NCCN2CCOCC2)c(=O)[nH]1 reported_result=-11.5
compound="Cn1cnc(S(=O)(=O)NCC(C)(O)c2ccc3c(c2)OCO3)c1 (stereo unspecified)" reported_result=-6.14
compound="CC(=O)c1cccc(NC(=O)CN2CCCCC2C(=O)N2CCCC2)c1 (stereo unspecified)" reported_result=-13.4

----------
experiment: Human HepG2 cell viability assay in 384 well format
Assay type: toxicity, cell-based
Set-up: dose 125 nL, time 70.5 hour; concentration not given beside the values
run-conditions: HepG2 cells, read-out: Inhibition
Measured cytotoxicity at 70.5 h of individual entries
recorded-metric: cytotoxicity at 70.5 h (%)

molecule="Cc1cccc2c1OCCC2NCc1c(C)nn(C)c1N(C)C (stereo unspecified)" reported_result=35
molecule=Cc1nc(C)c(C(=O)Nc2ccc(-c3nnc(N(C)C)o3)cc2)o1 reported_result=-4.93
molecule=COC(=O)c1ccc(Cl)c(S(=O)(=O)Nc2ccc(F)c(C(N)=O)c2)c1 reported_result=-14.5
molecule="O=C(NC1CCc2nccn2C1)c1ccc(OCC2CC2)nc1 (stereo unspecified)" reported_result=-7.7
molecule="Fc1ccccc1C1(CNC2CCOC3(CCOCC3)C2)CCCC1 (stereo unspecified)" reported_result=-9.34
molecule=O=C(O)c1ccc(N2CCC(Cc3ccccc3)CC2)nn1 reported_result=-1.14

----------
# cytotoxicity at 70.5 h listing for each entry below
experiment: Human HepG2 cell viability assay in 384 well format
Assay type: toxicity, cell-based
Set-up: dose 125 nL, time 70.5 hour; concentration not given beside the values
run-conditions: HepG2 cells, read-out: Inhibition
recorded-metric: cytotoxicity at 70.5 h (%)

compound="O=C(NCC(F)(F)F)C1CSCN1S(=O)(=O)c1ccc(F)cc1Cl (stereo not drawn)" recorded_metric="cytotoxicity at 70.5 h" measurement_unit=% reported_result=-10.4
compound=COc1c(CNC2CCN(C(=O)C(C)C)CC2)c(C(C)C)nn1C recorded_metric="cytotoxicity at 70.5 h" measurement_unit=% reported_result=19.1
compound=CCc1nnc2n1CCN(C(=O)c1ccccc1OCC1CC1)C2 recorded_metric="cytotoxicity at 70.5 h" measurement_unit=% reported_result=0.159
compound=CNS(=O)(=O)c1ccc(C)c(C(=O)NCCNc2ncccn2)c1 recorded_metric="cytotoxicity at 70.5 h" measurement_unit=% reported_result=-14.9
compound=O=C(NCCN1CCOCC1)c1ccnn1-c1ccc2ccccn12 recorded_metric="cytotoxicity at 70.5 h" measurement_unit=% reported_result=3.81
compound=CN(C)CCNC(=O)c1cc(-c2cnc(N(C)C)nc2)cn1CC1CC1 recorded_metric="cytotoxicity at 70.5 h" measurement_unit=% reported_result=-6.44
compound="CC(C)c1n[nH]c(C2CN(C(=O)c3csnn3)CCO2)n1 (stereo not drawn)" recorded_metric="cytotoxicity at 70.5 h" measurement_unit=% reported_result=-3.07
compound=Fc1cnc(N2CCOC3(CCN(Cc4ccsc4)CC3)C2)nc1 recorded_metric="cytotoxicity at 70.5 h" measurement_unit=% reported_result=8.85
compound=O=C(c1ccc2c(c1)[nH]c(=O)n2C1CCCC1)N1CCC1 recorded_metric="cytotoxicity at 70.5 h" measurement_unit=% reported_result=-3.8
compound=COc1ccccc1OCCNC(=O)N1CCC(n2cncn2)CC1 recorded_metric="cytotoxicity at 70.5 h" measurement_unit=% reported_result=-4.48
compound="Cc1ccc(OCC(O)CN2CCc3c(ncn3C3CC3)C2)cc1 (stereo not drawn)" recorded_metric="cytotoxicity at 70.5 h" measurement_unit=% reported_result=-4.79
compound=O=C(c1nnn(-c2ccccc2Cl)c1-c1ccccn1)N1CCSCC1 recorded_metric="cytotoxicity at 70.5 h" measurement_unit=% reported_result=-2.09
compound=COc1ccc2nc(NC(=O)c3c(C(=O)O)cnn3C)sc2c1 recorded_metric="cytotoxicity at 70.5 h" measurement_unit=% reported_result=-8.88
compound=Cc1cccc(CN2C[C@@H]3OCCN(S(=O)(=O)N(C)C)[C@@H]3C2)c1 recorded_metric="cytotoxicity at 70.5 h" measurement_unit=% reported_result=-2.05
compound="CNC(=O)C1(CCCc2cccnc2)CCCCN1 (stereo not drawn)" recorded_metric="cytotoxicity at 70.5 h" measurement_unit=% reported_result=-1.91
compound=CNS(=O)(=O)c1cccc(CNCc2ccsc2)c1 recorded_metric="cytotoxicity at 70.5 h" measurement_unit=% reported_result=-1.74
compound=COCCN1C(=O)[C@]2(CC[C@@H]3CN(C(=O)NCC(C)C)C[C@@H]32)N=C1C recorded_metric="cytotoxicity at 70.5 h" measurement_unit=% reported_result=-10
compound=Cc1cc(C)nc(NC(=O)NCCCSc2nncn2C)n1 recorded_metric="cytotoxicity at 70.5 h" measurement_unit=% reported_result=-8.45
compound=Cc1nonc1CN1CC[C@@](O)(C2CCOCC2)[C@H](C)C1 recorded_metric="cytotoxicity at 70.5 h" measurement_unit=% reported_result=-11
compound=Brc1ccc(CNCc2nnc3n2CCCCC3)s1 recorded_metric="cytotoxicity at 70.5 h" measurement_unit=% reported_result=-16.6
compound=CC(C)c1nnc2n1CCN(C(=O)c1cc3cc(F)ccc3[nH]1)C2 recorded_metric="cytotoxicity at 70.5 h" measurement_unit=% reported_result=-16.2
compound=NC(=O)CSCCC(=O)NCC1CC1 recorded_metric="cytotoxicity at 70.5 h" measurement_unit=% reported_result=3.32
compound="Cc1cc(C)n(CC2CN(Cc3cccc(C(N)=O)c3)CCO2)n1 (stereo not drawn)" recorded_metric="cytotoxicity at 70.5 h" measurement_unit=% reported_result=6.91
compound=CCn1c(CN(C)C(=O)c2ccc(OC)nc2)nc2ccccc21 recorded_metric="cytotoxicity at 70.5 h" measurement_unit=% reported_result=-11.7
compound=Cc1cc(C(=O)N2C[C@@H](CN3CCOCC3)C[C@H](CO)C2)nc(C)n1 recorded_metric="cytotoxicity at 70.5 h" measurement_unit=% reported_result=-5.29
compound=CC(C)n1cc(S(=O)(=O)N2CCCCC2)cn1 recorded_metric="cytotoxicity at 70.5 h" measurement_unit=% reported_result=9.02
compound=Cc1cccc(CN2CC[C@H]3[C@@H]2CC(=O)N3CC2CC2)n1 recorded_metric="cytotoxicity at 70.5 h" measurement_unit=% reported_result=-9.45
compound="Cn1nc(C2CCCN(Cc3ccc(F)cc3)C2)c2nccnc21 (stereo not drawn)" recorded_metric="cytotoxicity at 70.5 h" measurement_unit=% reported_result=5.25
compound="Cc1nnsc1C(=O)N1CCCCC1c1cc2nc(C)c(C)c(O)n2n1 (stereo not drawn)" recorded_metric="cytotoxicity at 70.5 h" measurement_unit=% reported_result=-2.13
compound=Cc1ccc(CSc2nc(N)cc(NCCS(=O)(=O)N(C)C)n2)cc1 recorded_metric="cytotoxicity at 70.5 h" measurement_unit=% reported_result=-2.68
compound="Cc1nc(C2CCNC2)nc2c1CCC(=O)N2C (stereo not drawn)" recorded_metric="cytotoxicity at 70.5 h" measurement_unit=% reported_result=-4.12
compound=Cc1cc(C(=O)N2C[C@H]3CC[C@@H]2CN(C(=O)c2ccncc2)C3)cs1 recorded_metric="cytotoxicity at 70.5 h" measurement_unit=% reported_result=-1.99
compound=COc1ccc(Br)c(C(=O)NCC2CC2)c1 recorded_metric="cytotoxicity at 70.5 h" measurement_unit=% reported_result=18.2
compound="O=C(CC1CCCC1)N1CCCC1c1ccc(CN2CCOCC2)cn1 (stereo not drawn)" recorded_metric="cytotoxicity at 70.5 h" measurement_unit=% reported_result=-0.855
compound=COc1c(CNCc2ccc(CN(C)C)cc2)c(C(C)C)nn1C recorded_metric="cytotoxicity at 70.5 h" measurement_unit=% reported_result=2.15
compound="O=C1NCC2(CCCN(Cc3cccnc3)C2)Oc2ccccc21 (stereo not drawn)" recorded_metric="cytotoxicity at 70.5 h" measurement_unit=% reported_result=-7.07
compound="CC(C)(C)n1ncc(NCC(O)c2ccc(F)c(F)c2)c(Cl)c1=O (stereo not drawn)" recorded_metric="cytotoxicity at 70.5 h" measurement_unit=% reported_result=-0.243
compound="O=S(=O)(c1cncc(F)c1)N1CCC2(CCOC2)C1 (stereo not drawn)" recorded_metric="cytotoxicity at 70.5 h" measurement_unit=% reported_result=-14.3
compound=Cc1ccc(OCC(=O)NCC(F)(F)F)nc1 recorded_metric="cytotoxicity at 70.5 h" measurement_unit=% reported_result=-4.18
compound="CC(C)NC1CCCc2nc(-c3ccccc3)ncc21 (stereo not drawn)" recorded_metric="cytotoxicity at 70.5 h" measurement_unit=% reported_result=-14.3
compound=O=C(CCc1cc2n(n1)CCCNC2)NCCS(=O)(=O)N1CCCC1 recorded_metric="cytotoxicity at 70.5 h" measurement_unit=% reported_result=21.6
compound=O=C(c1cccnc1)N1CCC2(CC1)CCN(c1ccsc1)C2=O recorded_metric="cytotoxicity at 70.5 h" measurement_unit=% reported_result=-4.42
compound="Cc1nc(C)n(CC2CCCCN2CCCO)n1 (stereo not drawn)" recorded_metric="cytotoxicity at 70.5 h" measurement_unit=% reported_result=9.77
compound=C[C@@H]1CN(CCC(=O)N(C)Cc2ccccc2)CC[C@@]1(O)C1CCC1 recorded_metric="cytotoxicity at 70.5 h" measurement_unit=% reported_result=21.4
compound=CC(C)OCCSCc1nnc(-c2cccc(F)c2)o1 recorded_metric="cytotoxicity at 70.5 h" measurement_unit=% reported_result=-5.57
compound=CCSCc1cccc(NC(=O)N(C)Cc2ncnn2C)c1 recorded_metric="cytotoxicity at 70.5 h" measurement_unit=% reported_result=-3.07
compound="COc1cccc(OCC2CCCN(C(=O)CCCn3cccn3)C2)c1 (stereo not drawn)" recorded_metric="cytotoxicity at 70.5 h" measurement_unit=% reported_result=-11
compound="CC(=O)Nc1ccc(CNCC(O)c2ccc(Cl)cc2)cc1 (stereo not drawn)" recorded_metric="cytotoxicity at 70.5 h" measurement_unit=% reported_result=-5.19
